Molecular target: C-X-C chemokine receptor type 2 (Homo sapiens)
Sequence (P25025 whole entry): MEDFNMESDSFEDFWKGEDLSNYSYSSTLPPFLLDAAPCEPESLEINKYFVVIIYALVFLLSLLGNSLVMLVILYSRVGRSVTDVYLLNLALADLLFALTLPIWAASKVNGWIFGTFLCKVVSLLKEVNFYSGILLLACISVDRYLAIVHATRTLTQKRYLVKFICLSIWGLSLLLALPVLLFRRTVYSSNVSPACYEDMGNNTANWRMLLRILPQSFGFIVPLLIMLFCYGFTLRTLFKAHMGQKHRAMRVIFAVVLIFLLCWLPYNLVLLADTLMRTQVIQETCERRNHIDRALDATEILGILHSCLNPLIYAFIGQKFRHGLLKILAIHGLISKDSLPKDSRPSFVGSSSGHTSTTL
Test: Displacement of [125I]IL8 from human CXCR2 expressed in HEK 293 by SPA
Format: cell-based, HEK293
// values below are reported pIC50
Would you please state pIC50, meaning minus log10 of the concentration in mol/L, as a bare number?

Enquiry: Form: Entry = C[C@H](CO)Nc1nc(SCc2cccc(Cl)c2)nc2nc(N)sc12 | System = C-X-C chemokine receptor type 2 (Homo sapiens) | pIC50 = ____
Return: 7.90

Enquiry: What about this molecule? C[C@H](CO)Nc1nc(SCc2cccc(Cl)c2F)nc2nc(N)sc12
Return: 8.40

Enquiry: What about this molecule? CNc1nc2nc(SCc3cccc(F)c3F)nc(N[C@H](C)CO)c2s1
Return: 8.10

Enquiry: What about this molecule? CC(C)Nc1nc2nc(SCc3cccc(F)c3F)nc(N[C@H](C)CO)c2s1
Return: 7.50

# next molecule below
Enquiry: Form: Entry = C[C@H](CO)Nc1nc(SCc2ccccc2F)nc2nc(N)sc12 | System = C-X-C chemokine receptor type 2 (Homo sapiens) | pIC50 = ____
Return: 7.90

###

Target: C-X-C chemokine receptor type 2 (Homo sapiens)
Sequence (P25025 whole entry): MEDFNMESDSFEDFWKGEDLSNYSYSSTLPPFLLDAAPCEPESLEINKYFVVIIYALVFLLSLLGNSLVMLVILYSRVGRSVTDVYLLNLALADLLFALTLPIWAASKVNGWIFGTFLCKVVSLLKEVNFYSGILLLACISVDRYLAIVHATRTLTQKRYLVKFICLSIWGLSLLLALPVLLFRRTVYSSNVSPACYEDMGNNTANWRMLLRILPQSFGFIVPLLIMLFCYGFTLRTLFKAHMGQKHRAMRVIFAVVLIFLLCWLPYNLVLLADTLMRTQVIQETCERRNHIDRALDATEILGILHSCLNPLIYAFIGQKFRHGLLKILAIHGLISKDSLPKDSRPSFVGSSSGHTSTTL
Experiment: Antagonistic activity against human CXCR2 in neutrophils assessed as blockade of GROalpha stimulated calcium mobilisation by FLIPR
Assay type: functional
endpointName: IC50 (nM)
All answers are understood in nM, so give the number only.

Enquiry: Item under review: CC(C)(CO)Nc1nc(SCc2cccc(F)c2F)nc2nc(N)sc12 . Reported IC50?
Return: 15.8

###

assay: Bioavailability in po dosed rat; assay type: ADME, organism-based; conditions: in vivo
endpointName: bioavailability

Enquiry: Item under review: C[C@H](CO)Nc1nc(SCc2cccc(F)c2F)nc2nc(N)sc12 . Reported bioavailability?
Return: 9%
